Data origin: paper PMC9170038

- system-name: MS2 coat protein, dlFG mutant (Escherichia phage MS2, UniProt P03612, del68-81insG)
- measurement-protocol: 4 mM Mg2+; no ligand; RNA-MaP array; 100 mM Tris-HCl pH 7.5, 80 mM KCl, 4 mM MgCl2, 0.1 mg/mL BSA, 1 mM DTT, 0.01 mg/mL yeast tRNA, 0.01% Tween-20; protein 1.5 nM to 3 uM; 37 C (Table S3)
- details: chain copies: 2; label: tethered by stalled RNA polymerase
endpoint: pKd
Give bare numbers, as −log10 of the molar value.

Eterna 5956610 (Same State NG 2) (ssRNA) RNA: UGGCUGAGUCGAGGAUAUGAUCUUCAUAUAAUAACAUGAGGAUCACCCAUGUAUAAUUACAUGGAUCAGAAGGCGACUCAGCCA | 6.18

// moving on: another record for pKd
pKd in this record for Eterna 6120996 (Same State NG 1) (ssRNA) RNA: GGUCCAGCAUGAGGAUAUGGCACCUUAUUGGUGCCAGAAGGCAUGUCUAUAGACAUGAGGAUCACCCAUGUAAUAAAUUGGACC : 6.19
